// provenance: the supplement of paper PMC10567573

- test-name: protein stability index of a GFP-peptide fusion (GPS, HEK-293T) (PSI 1-6); higher = more stable;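 further: 24-mer peptide tiles fused after GFP, lentivirally expressed, FACS-sorted into six equal bins by GFP/DsRed ratio, decoded by Illumina sequencing, PSI is the read-weighted mean bin number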
- test-context: treatment: DMSO; c terminus: a fixed tail appended
readout-kind: protein stability index
Lab note: record the figure alone, no unit after it.

Problem: Need protein stability index, item FTEKLWPLFYPGIRAGRKNAAPLT [TRIM39]
Result: 2.59

Problem: Need protein stability index, item LPCARVQICRAQGLETLFSKAQEL [ZSWIM9]
Result: 2.87

Problem: Need protein stability index, item EVKKKGKMKKLGQAMEEDLIVGLQ [HDAC6]
Result: 4.55

Problem: Need protein stability index, item LGRTGLYPSYKVREKIETVKYPTY [FUT8]
Result: 2.42

Problem: Need protein stability index, item LSRKKRLELDDNLDTERPVQKRAR [TRIB3]
Result: 4.79

Problem: Need protein stability index, item ILLEYCSRRSMAHILKARKVLTEP [PLK2]
Result: 2.48

Problem: Need protein stability index, item LRSSDLYRHQRLHTGERPYECTVC [ZNF449]
Result: 3.05

Problem: Need protein stability index, item VAGMPTAYDLSSVIASGSSVGHNN [CARM1]
Result: 3.86

Problem: Need protein stability index, item RNQCRYCRLKKCFRAGMKKEAVQN [HNF4A]
Result: 2.9

Problem: Need protein stability index, item KCILKTPGKINCLRNCKTYQARKP [RHOBTB3]
Result: 2.98

Problem: Need protein stability index, item SNSLSSAEPLKEDKPVTGPRNKTE [ATF6]
Result: 5.67

Problem: Need protein stability index, item TANCEACTLGICGQGLKSYMTKPS [RTP4]
Result: 2.89

Problem: Need protein stability index, item TPWALALLRTFDAGEFTGWEKVGS [RIPK4]
Result: 2.29

---

- test-name: protein stability index of a GFP-peptide fusion (GPS, HEK-293T) (PSI 1-6); higher = more stable
- test-context: treatment: MLN4924 1 uM, 8 h; c terminus: a fixed tail appended
readout-kind: protein stability index

Some solved cases for reference:
GSIPGFLISSGMSSHKQGHTSSEY [TAF7L]; 3.29
GYQMLGNVVTIGLAFFPFLHRLFR [PHTF1]; 3.68
LCQKQVKAQLPRRESERRNHSLAR [FBXO28]; 4.23
TGYLSTMVGLILGPFGINHGIELH [PCMTD1]; 3.35
KTIKRPFGVKYNPYTRSIQILKDT [TPH1]; 2.19

Problem: Need protein stability index, item RRLGNGVSDDLSSEEDGEARTQMI [PHTF1]
Result: 5.21

Problem: Need protein stability index, item VKVPTTLAEYCVKTKAPAPDEGSD [CDC34]
Result: 4.97

Problem: Need protein stability index, item KNGLPSPERSYVFNGDFVDRGKDS [PPEF2]
Result: 4.76

Problem: Need protein stability index, item GHSTDAREMSKTFIIGELHPDDRP [CYB5A]
Result: 4.66

Problem: Need protein stability index, item MWGQSLLPPVSTSFTTGGLRIPFP [TNXB]
Result: 2.42

---

protein stability index by entry:
- test-name: protein stability index of a GFP-peptide fusion (GPS, HEK-293T) (PSI 1-6); higher = more stable
- test-context: treatment: MLN4924 1 uM, 8 h; c terminus: a fixed tail appended
Lab note: record the figure alone, no unit after it.

SQQLQLIDEQDSYIQSRADTMQNI [STX5]; 4.74
FCMFYAVLGIPLTLVMFQSLGERM [KCNK9]; 2.95

Now look at this entry.
Problem: Need protein stability index, item HTPLISKSQSLRSVRRSESWARPR [RASAL3]
Result: 3.66
